biological target: T1, chemokine receptor 5 (CCR5; AC P51681) (human, UniProt P51681 1-352); assay: radioligand competition, 0.1 nM 125I-MIP 1-alpha tracer, membranes of CHO-K1 cells expressing CCR5
T1 construct: whole, on cells; Aequorin assays used whole cells co-expressing apoaequorin and G alpha 16
T1 sequence (P51681 whole entry, one chain of several): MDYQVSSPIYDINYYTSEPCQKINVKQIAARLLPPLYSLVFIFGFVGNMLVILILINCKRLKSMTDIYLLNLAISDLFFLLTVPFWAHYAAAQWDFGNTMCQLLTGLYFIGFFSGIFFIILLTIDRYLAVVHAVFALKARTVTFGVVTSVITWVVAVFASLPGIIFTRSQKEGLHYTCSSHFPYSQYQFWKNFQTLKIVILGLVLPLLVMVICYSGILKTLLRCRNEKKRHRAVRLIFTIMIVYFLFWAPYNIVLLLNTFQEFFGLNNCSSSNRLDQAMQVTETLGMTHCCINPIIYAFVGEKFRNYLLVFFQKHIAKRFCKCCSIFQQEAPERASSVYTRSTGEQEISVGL
MEASUREMENT KIND: pIC50
Formally, pIC50 is defined as -log10 of the concentration c, with c in mol/L.

// query pIC50 value for entry processed chemokine PHC-1 (HCC-1, residues 9-74) (ligand, also called HCC-1[9-74]) GPYHPSECCFTYTTYKIPRQRIMDYYETNSQCSKPGIVFITKRGHSVCTNPSDKWVQDYIKDMKEN 10.40
